B1: EEHEE_rd3_0130 (parent)
chain: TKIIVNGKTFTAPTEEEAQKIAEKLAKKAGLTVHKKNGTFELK

# Variants of: B1
# test: folding stability dG (cDNA display proteolysis); higher = more stable
# experimental.setup: PBS, room temperature
observation.type: folding stability dG (kcal/mol)
Answer in kcal/mol, number only, no unit symbol.

change=F10W observation_type="folding stability dG" u=kcal/mol val=0.82

[ask] Request the reported folding stability dG associated with L42Y
[reply] 0.019

[ask] Quick one: Q19A
[reply] 0.824

[ask] Quick one: G38L
[reply] -0.199

[ask] Quick one: L31D
[reply] -0.475

[ask] Quick one: I21F
[reply] 1.01

[ask] Quick one: K36S
[reply] 0.956

[ask] Quick one: K24D
[reply] 0.676

[ask] Quick one: V5M
[reply] 0.826

[ask] Quick one: T32N
[reply] 0.28
